Values were extracted from patent US20240174690A1.

Test: Solubility measurement (DMSO solution method), McIlvaine buffer pH 4.5 or 6.8
Type: physicochemical
Details: aqueous buffer, kinetic from dmso stock; McIlvaine buffer pH 6.8; DMSO stock diluted to 250 μM; 24 h shaking at ambient temperature; read-out: solubility pH 6.8
Protocol: The DMSO solution is diluted with an aqueous medium (Mcllvaine buffer with pH=4.5 or 6.8) to a final concentration of 250 μM. After 24 h of shaking at ambient temperature a potentially formed precipitate is removed by filtration. The concentration of the test compound in the filtrate is determined by LC-UV methods by calibrating the signal to the signal of a reference solution with complete dissolution of the test compound in acetonitrile/water (1:1) with known concentration.
measurement-name: solubility at 24 h

Query: Given the compound `C[C@H](Oc1cc(-c2ccn3ncnc3c2)nc(-c2noc3c2CCC[C@@]32CCCc3sc(N)c(C#N)c32)n1)[C@@H]1CCCN1C` , write its reported solubility at 24 h.
Reply: < 1 µg/mL

Please look at the items below and tell me solubility at 24 h for each one, in order.
1. C[C@H](Oc1cc(N2CCNC[C@@]23CCOC3)nc(-c2onc3c2CCC[C@@]32CCCc3sc(N)c(C#N)c32)n1)[C@@H]1CCCN1C
2. C[C@H](Oc1cc(-c2cnsc2)nc(-c2noc3c2CCC[C@@]32CCCc3sc(N)c(C#N)c32)n1)[C@@H]1CCCN1C

Reply:
1. > 150 µg/mL
2. < 1 µg/mL

Please look at the items below and tell me solubility at 24 h for each one, in order.
1. CO[C@H]1CCN(C)[C@@H]1[C@H](C)Oc1cc(-n2ccc(C(=O)N(C)C3COC3)n2)nc(-c2noc3c2CCC[C@@]32CCCc3sc(N)c(C#N)c32)n1
2. Cc1cc(-c2onc3c2CCC[C@@]32CCCc3sc(N)c(C#N)c32)nc(N2CCCNC[C@@H]2C)n1

Reply:
1. 9 µg/mL
2. < 1 µg/mL

Please look at the items below and tell me solubility at 24 h for each one, in order.
1. C[C@H](Oc1cc(-n2ccc(C(=O)O)n2)nc(-c2noc3c2CCC[C@@]32CCCc3sc(N)c(C#N)c32)n1)[C@@H]1CCCN1C
2. C[C@H](Oc1cc(N2C[C@H](C)N(C)[C@@H](C)C2)nc(-c2noc3c2CCC[C@@]32CCCc3sc(N)c(C#N)c32)n1)[C@@H]1CCCN1C
3. C[C@H](Oc1cc(-c2ccn(C[C@@H]3CCCO3)n2)nc(-c2noc3c2CCC[C@@]32CCCc3sc(N)c(C#N)c32)n1)[C@@H]1CCCN1C
4. C[C@H](Oc1cc(N2CCNC3(CC3)C2)nc(-c2onc3c2CCC[C@@]32CCCc3sc(N)c(C#N)c32)n1)[C@@H]1CCCN1C
5. CO[C@H]1CCN(C)[C@@H]1[C@H](C)Oc1cc(-n2ccc(C(=O)N[C@@H]3CCOC3)n2)nc(-c2noc3c2CCC[C@@]32CCCc3sc(N)c(C#N)c32)n1
6. C[C@H](Oc1nc(-c2noc3c2CCC[C@@]32CCCc3sc(N)c(C#N)c32)cc(N2C[C@H](C)N[C@@H](C)C2)n1)[C@@H]1CCCN1C
7. C[C@H](Oc1cc(-n2ccsc2=O)nc(-c2noc3c2CCC[C@@]32CCCc3sc(N)c(C#N)c32)n1)[C@@H]1CCCN1C
8. C[C@H](Oc1cc(N2CCNC[C@]23CCOC3)nc(-c2onc3c2CCC[C@@]32CCCc3sc(N)c(C#N)c32)n1)[C@@H]1CCCN1C

Reply:
["< 1 µg/mL", "> 146 µg/mL", "9 µg/mL", "> 123 µg/mL", "5 µg/mL", "> 150 µg/mL", "< 1 µg/mL", "125 µg/mL"]

----------
Test system: NCI-H2122 cells
Test: NCI-H2122 CTG proliferation assay (120 h) (NSCLC, G12C)
Format: cell-based
Details: Homo sapiens
Sorting guide: entries reporting IC50 beneath 2000 nM go in the Fulfilled pile, the rest go in the Not fulfilled pile.

Consider the following illustrative entries.
Query: Quick check: does C[C@H](Oc1cc(N2CCNC3(COC3)C2)nc(-c2noc3c2CCC[C@@]32CCCc3sc(N)c(C#N)c32)n1)[C@@H]1CCCN1C [II-31] have IC50 under 2000 nM?
Reply: Not fulfilled

Query: Quick check: does C[C@H](Oc1cc(N2CCC(C#N)C2)nc(-c2noc3c2CCC[C@@]32CCCc3sc(N)c(C#N)c32)n1)[C@@H]1CCCN1C (stereo partly drawn) [II-99] have IC50 under 2000 nM?
Reply: Fulfilled

Query: Quick check: does COCc1cn(-c2cc(O[C@@H](C)[C@@H]3CCCN3C)nc(-c3noc4c3CCC[C@@]43CCCc4sc(N)c(C#N)c43)n2)nn1 [II-121] have IC50 under 2000 nM?
Reply: Fulfilled

Query: Quick check: does C[C@H](Oc1cc(-n2ccnn2)nc(-c2onc3c2CCC[C@@]32CCCc3sc(N)c(C#N)c32)n1)[C@@H]1CCCN1C [I-32] have IC50 under 2000 nM?
Reply: Fulfilled

Query: Quick check: does C[C@H](Oc1cc(N2CCc3cccnc32)nc(-c2noc3c2CCC[C@@]32CCCc3sc(N)c(C#N)c32)n1)[C@@H]1CCCN1C [II-90] have IC50 under 2000 nM?
Reply: Fulfilled

Note: attention shifts to another entry.
Query: Quick check: does COC(=O)c1ccc(-c2cc(O[C@@H](C)[C@@H]3CCCN3C)nc(-c3noc4c3CCC[C@@]43CCCc4sc(N)c(C#N)c43)n2)o1 [II-114] have IC50 under 2000 nM?
Reply: Fulfilled

----------
Target: KRAS (G12C)::SOS1 (Homo sapiens (Human), UniProt P01116, C118S/C51S/C80L/G12C)
Sequence (P01116 other isoform, or with tags, fused parts or gaps G12C/C51S/C80L/C118S): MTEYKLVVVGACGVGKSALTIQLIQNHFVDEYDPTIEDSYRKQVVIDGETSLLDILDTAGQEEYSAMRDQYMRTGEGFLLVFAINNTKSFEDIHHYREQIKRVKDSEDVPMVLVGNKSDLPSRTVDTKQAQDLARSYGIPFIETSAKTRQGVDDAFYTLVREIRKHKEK
Assay: KRAS::SOS1 AlphaScreen binding assay, KRAS G12C
measurement-name: IC50

Please review the entries below; each comes with its answer.
Query: Given the compound `C[C@H](Oc1cc(C2=CCNCC2)nc(-c2noc3c2CCC[C@@]32CCCc3sc(N)c(C#N)c32)n1)[C@@H]1CCCN1C` , write its reported IC50.
Reply: 2 nM

Query: Given the compound `C[C@H](Oc1cc(N2Cc3cnn(C)c3C2)nc(-c2onc3c2CCC[C@@]32CCCc3sc(N)c(C#N)c32)n1)[C@@H]1CCCN1C` , write its reported IC50.
Reply: 2 nM

Query: Given the compound C[C@H](Oc1cc(N2CCC(C#N)C2)nc(-c2noc3c2CCC[C@@]32CCCc3sc(N)c(C#N)c32)n1)[C@@H]1CCCN1C (stereo partly drawn) , write its reported IC50.
Reply: 3 nM

Query: Given the compound `C[C@H](Oc1cc(N2CCN(C)C3(CC3)C2)nc(-c2noc3c2CCC[C@@]32CCCc3sc(N)c(C#N)c32)n1)[C@@H]1C[C@@H](F)CN1C` , write its reported IC50.
Reply: 8 nM

Query: Given the compound `C[C@H](Oc1cc(-c2cn(C3COC3)nn2)nc(-c2noc3c2CCC[C@@]32CCCc3sc(N)c(C#N)c32)n1)[C@@H]1CCCN1C` , write its reported IC50.
Reply: 3 nM

Next:
Query: Given the compound C[C@H](Oc1cc(C2CCCO2)nc(-c2noc3c2CCC[C@@]32CCCc3sc(N)c(C#N)c32)n1)[C@@H]1CCCN1C (stereo partly drawn) , write its reported IC50.
Reply: 2 nM

----------
Test system: KRAS G12C-dependent Ba/F3 cells
Experiment: Ba/F3 proliferation assay, KRAS G12C
Format: cell-based
Details: Mus musculus, BaF3, 72 h, AlamarBlue
measurement-name: pIC50
One number for each entry, as −log10 of the molar value.

Please review the entries below; each comes with its answer.
Query: Given the molecule `C[C@H](Oc1cc(N2CCNC[C@]23CCOC3)nc(-c2noc3c2CCC[C@@]32CCCc3sc(N)c(C#N)c32)n1)[C@@H]1CCCN1C` , write its reported pIC50.
Reply: 6.57

Query: Given the molecule `C[C@H](Oc1cc(-n2ccc(C#N)n2)nc(-c2noc3c2CCC[C@@]32CCCc3sc(N)c(C#N)c32)n1)[C@@H]1CCCN1C` , write its reported pIC50.
Reply: 8.40

Query: Given the molecule `C[C@H](Oc1cc(-n2cccc3cnnc2-3)nc(-c2noc3c2CCC[C@@]32CCCc3sc(N)c(C#N)c32)n1)[C@@H]1CCCN1C` , write its reported pIC50.
Reply: 7.33

Please look at the items below and tell me pIC50 for each one, in order.
1. CO[C@@H]1C[C@@H]([C@H](C)Oc2cc(-c3ccn(C)n3)nc(-c3noc4c3CCC[C@@]43CCCc4sc(N)c(C#N)c43)n2)N(C)C1
2. C[C@H](Oc1cc(N2CCNC3(CC3)C2)nc(-c2onc3c2CCC[C@@]32CCCc3sc(N)c(C#N)c32)n1)[C@@H]1C[C@@H](F)CN1C
3. C[C@H](Oc1cc(-c2cn[nH]c2)nc(-c2noc3c2CCC[C@@]32CCCc3sc(N)c(C#N)c32)n1)[C@@H]1CCCN1C
4. C[C@H](Oc1nc(-c2noc3c2CCC[C@@]32CCCc3sc(N)c(C#N)c32)nc(N2CCNC3(CC3)C2)c1F)[C@@H]1C[C@@H](F)CN1C
5. COCCNC(=O)c1ccn(-c2cc(O[C@@H](C)[C@@H]3CCCN3C)nc(-c3onc4c3CCC[C@@]43CCCc4sc(N)c(C#N)c43)n2)n1
6. C[C@H](Oc1cc(-c2ccn(C3CC3)n2)nc(-c2noc3c2CCC[C@@]32CCCc3sc(N)c(C#N)c32)n1)[C@@H]1CCCN1C
7. CNC(=O)c1cn(-c2cc(O[C@@H](C)[C@@H]3CCCN3C)nc(-c3noc4c3CCC[C@@]43CCCc4sc(N)c(C#N)c43)n2)nn1

Reply:
1: 7.82; 2: 6.55; 3: 7.33; 4: 6.77; 5: 8.40; 6: 7.64; 7: 7.68
